Molecular target: T1, human IL-23R endogenously expressed on DB cells (human, UniProt Q5VWK5 24-629)
T1 sequence (looked up): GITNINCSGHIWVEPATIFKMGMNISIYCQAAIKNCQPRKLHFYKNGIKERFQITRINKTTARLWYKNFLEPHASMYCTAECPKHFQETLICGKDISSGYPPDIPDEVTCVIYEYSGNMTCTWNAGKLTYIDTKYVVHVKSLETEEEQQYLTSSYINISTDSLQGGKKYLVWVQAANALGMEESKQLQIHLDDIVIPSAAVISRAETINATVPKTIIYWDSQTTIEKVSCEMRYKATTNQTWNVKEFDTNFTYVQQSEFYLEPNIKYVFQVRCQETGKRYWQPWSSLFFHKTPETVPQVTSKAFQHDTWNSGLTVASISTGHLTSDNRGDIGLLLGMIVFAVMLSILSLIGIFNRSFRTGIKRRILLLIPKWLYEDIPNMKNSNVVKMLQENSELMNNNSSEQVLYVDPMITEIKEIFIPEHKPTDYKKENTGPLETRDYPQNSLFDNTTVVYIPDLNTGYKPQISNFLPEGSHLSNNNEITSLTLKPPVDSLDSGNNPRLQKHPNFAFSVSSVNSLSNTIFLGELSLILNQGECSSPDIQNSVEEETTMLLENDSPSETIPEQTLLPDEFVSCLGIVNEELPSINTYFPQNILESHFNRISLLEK
Assay: cell-based or functional assay
Bridges are numbered along the chain shown (N, C = ends). [ ]: non-standard residue; d: D form. 2Nal = N[C@@H](Cc1ccc2ccccc2c1)C(=O)O; AEF = NCCOc1ccc(C[C@H](N)C(=O)O)cc1; 3Pal = N[C@@H](Cc1cccnc1)C(=O)O; αMeL = CC(C)C[C@](C)(N)C(=O)O; Dab = NCC[C@H](N)C(=O)O
measure: hIL-23 (pSTAT3) antagonist % inhibition (%)
Please respond with the number in % and leave the unit unwritten.

Which measured hIL-23 (pSTAT3) antagonist % inhibition value corresponds to ETWQE[AEF][2Nal][αMeL]K[Dab][3Pal]-NHMe (lactam 1-9, N-5; SMILES CNC(=O)[C@H](Cc1cccnc1)NC(=O)[C@H](CCN)NC(=O)[C@@H]1CCCCNC(=O)CC[C@@H]2NC(=O)CC[C@H](NC(=O)[C@H](CCC(N)=O)NC(=O)[C@H](Cc3c[nH]c4ccccc34)NC(=O)[C@H]([C@@H](C)O)NC2=O)C(=O)N[C@@H](Cc2ccc(OCCN)cc2)C(=O)N[C@@H](Cc2ccc3ccccc3c2)C(=O)N[C@@](C)(CC(C)C)C(=O)N1) [Compound 39] ?
99
